- methodNotes: amyloid nucleation score (Sup35N fusion, yeast selection) (log enrichment); library NNK2; higher = more nucleation; inactive = no reads after selection;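 note: zero at mode of non-aggregating sequences after 7 days selection at 30°C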
measuredAttribute: amyloid nucleation score

>  <substance>
YVSECVANA

>  <amyloid nucleation score>
inactive

$$$$
>  <substance>
DLYSSV

>  <amyloid nucleation score>
0.75

$$$$
>  <substance>
VDCWMSISCQDYDSKFKVKS

>  <amyloid nucleation score>
0.242

$$$$
>  <substance>
DRYWLERWSDGNCGRSARIR

>  <amyloid nucleation score>
1.22

$$$$
>  <substance>
SSLWSGPKVIQDY

>  <amyloid nucleation score>
-0.122

$$$$
>  <substance>
LAMYLWCTELP

>  <amyloid nucleation score>
-0.057

$$$$
>  <substance>
STDWNLRPGPSLRWLLSPAT

>  <amyloid nucleation score>
0.92

$$$$
>  <substance>
SQCFERV

>  <amyloid nucleation score>
0.637

$$$$

Field amyloid nucleation score (entry AALFDLRWTHHKYFPNVKSG ) reads 0.057

Field amyloid nucleation score (entry KFHGSVNGMFPAREITRDLR ) reads 0.316

Field amyloid nucleation score (entry FRVFCMHSED ) reads 2.47

Field amyloid nucleation score (entry SKVRLQSGYTKHERKNFHWL ) reads -0.001

Field amyloid nucleation score (entry QLVLKVRLWVDGLYVLEWGW ) reads -0.042
